# method: Cytotoxicity against HEL299 cells assessed as changes in cell morphology after 5 days by microscopic method
# Format: cell-based, HEL 299
# test-parameters: human
observable: MCC at 120 h

compound	reported-value
CC(=O)N[C@H]1[C@H](O[C@@H]2c3ccc(c(Cl)c3)Oc3cc4cc(c3O)Oc3ccc(cc3Cl)C[C@H]3NC(=O)[C@H](NS(=O)(=O)c5ccccc5)c5ccc(O)c(c5)Oc5cc(O)cc(c5)[C@H](NC3=O)C(=O)N[C@H]4C(O)N[C@H]3C(=O)N[C@H]2C(=O)N[C@@H](C(=O)O)c2cc(O)cc(O)c2-c2cc3ccc2O)O[C@H](CO)[C@@H](O)[C@@H]1O (stereo partly drawn)	≥ 20 µM
CC(=O)N[C@H]1[C@H](O[C@@H]2c3ccc(c(Cl)c3)Oc3cc4cc(c3O)Oc3ccc(cc3Cl)C[C@H]3NC(=O)[C@H](NS(=O)(=O)c5ccc(C)cc5)c5ccc(O)c(c5)Oc5cc(O)cc(c5)[C@H](NC3=O)C(=O)N[C@H]4C(O)N[C@H]3C(=O)N[C@H]2C(=O)N[C@@H](C(=O)O)c2cc(O)cc(O)c2-c2cc3ccc2O)O[C@H](CO)[C@@H](O)[C@@H]1O (stereo partly drawn)	≥ 100 µM
CCCCCCCCCCCCS(=O)(=O)N[C@H]1C(=O)N[C@@H]2Cc3ccc(c(Cl)c3)Oc3cc4cc(c3O)Oc3ccc(cc3Cl)[C@@H](O[C@@H]3O[C@H](CO)[C@@H](O)[C@H](O)[C@H]3NC(C)=O)[C@H]3NC(=O)[C@H](NC(O)[C@@H]4NC(=O)[C@@H](NC2=O)c2cc(O)cc(c2)Oc2cc1ccc2O)c1ccc(O)c(c1)-c1c(O)cc(O)cc1[C@H](C(=O)O)NC3=O (stereo partly drawn)	20 µM

---

# Test system: Influenza B virus
# method: Antiviral activity against Influenza B virus B/Ned/537/05 infected in MDCK cells after 3 days by MTS assay
# Type: functional, organism-based
# test-parameters: B/Ned/537/05, MDCK, 72 h
pEC50: −log10 of the molar value.
observable: pEC50

compound	observable	reported-value
CCCCCCCCS(=O)(=O)N[C@H]1C(=O)N[C@@H]2Cc3ccc(c(Cl)c3)Oc3cc4cc(c3O)Oc3ccc(cc3Cl)[C@@H](O[C@@H]3O[C@H](CO)[C@@H](O)[C@H](O)[C@H]3NC(C)=O)[C@H]3NC(=O)[C@H](NC(O)[C@@H]4NC(=O)[C@@H](NC2=O)c2cc(O)cc(c2)Oc2cc1ccc2O)c1ccc(O)c(c1)-c1c(O)cc(O)cc1[C@H](C(=O)O)NC3=O (some centres not stated)	pEC50	< 4.00
CCCCOCc1cn(CCOCCOCCOCCOCc2cn([C@H]3C(=O)N[C@@H]4Cc5ccc(c(Cl)c5)Oc5cc6cc(c5O)Oc5ccc(cc5Cl)[C@@H](O[C@@H]5O[C@H](CO)[C@@H](O)[C@H](O)[C@H]5NC(C)=O)[C@H]5NC(=O)[C@H](NC(O)[C@@H]6NC(=O)[C@@H](NC4=O)c4cc(O)cc(c4)Oc4cc3ccc4O)c3ccc(O)c(c3)-c3c(O)cc(O)cc3[C@H](C(=O)O)NC5=O)nn2)nn1 (some centres not stated)	pEC50	4.55
CCCCCCCCOCc1cn(CCOCCOCCOCCOCc2cn([C@H]3C(=O)N[C@@H]4Cc5ccc(c(Cl)c5)Oc5cc6cc(c5O)Oc5ccc(cc5Cl)[C@@H](O[C@@H]5O[C@H](CO)[C@@H](O)[C@H](O)[C@H]5NC(C)=O)[C@H]5NC(=O)[C@H](NC(O)[C@@H]6NC(=O)[C@@H](NC4=O)c4cc(O)cc(c4)Oc4cc3ccc4O)c3ccc(O)c(c3)-c3c(O)cc(O)cc3[C@H](C(=O)O)NC5=O)nn2)nn1 (some centres not stated)	pEC50	< 4.00
CCCCCCCCCCOCc1cn(CCOCCOCCOCCOCc2cn([C@H]3C(=O)N[C@@H]4Cc5ccc(c(Cl)c5)Oc5cc6cc(c5O)Oc5ccc(cc5Cl)[C@@H](O[C@@H]5O[C@H](CO)[C@@H](O)[C@H](O)[C@H]5NC(C)=O)[C@H]5NC(=O)[C@H](NC(O)[C@@H]6NC(=O)[C@@H](NC4=O)c4cc(O)cc(c4)Oc4cc3ccc4O)c3ccc(O)c(c3)-c3c(O)cc(O)cc3[C@H](C(=O)O)NC5=O)nn2)nn1 (some centres not stated)	pEC50	> 6.10
CCCCSC1=C(SCCCC)C(=O)N(Cc2cn(C3C(=O)N[C@@H]4Cc5ccc(c(Cl)c5)Oc5cc6cc(c5O)Oc5ccc(cc5Cl)[C@@H](O[C@@H]5O[C@H](CO)[C@@H](O)[C@H](O)[C@H]5NC(C)=O)[C@H]5NC(=O)[C@H](NC(O)[C@@H]6NC(=O)[C@@H](NC4=O)c4cc(O)cc(c4)Oc4cc3ccc4O)c3ccc(O)c(c3)-c3c(O)cc(O)cc3[C@H](C(=O)O)NC5=O)nn2)C1=O (some centres not stated)	pEC50	5.46
NC12CC3CC(CC(C3)C1)C2	pEC50	< 3.30
CCCCCCOCc1cn(CCOCCOCCOCCOCc2cn([C@H]3C(=O)N[C@@H]4Cc5ccc(c(Cl)c5)Oc5cc6cc(c5O)Oc5ccc(cc5Cl)[C@@H](O[C@@H]5O[C@H](CO)[C@@H](O)[C@H](O)[C@H]5NC(C)=O)[C@H]5NC(=O)[C@H](NC(O)[C@@H]6NC(=O)[C@@H](NC4=O)c4cc(O)cc(c4)Oc4cc3ccc4O)c3ccc(O)c(c3)-c3c(O)cc(O)cc3[C@H](C(=O)O)NC5=O)nn2)nn1 (some centres not stated)	pEC50	< 4.00

---

Entries and their pEC50 values follow.
# System: Influenza B virus
# method: Antiviral activity against Influenza B virus B/Ned/537/05 infected in MDCK cells after 3 days by MTS assay
# Type: functional, organism-based
# test-parameters: B/Ned/537/05, MDCK, 72 h
pEC50: −log10 of the molar value.
observable: pEC50

compound	censoring-sign	reported-value
CCCCSC1=C(SCCCC)C(=O)N(CCOCCOCCOCCOCc2cn(C3C(=O)N[C@@H]4Cc5ccc(c(Cl)c5)Oc5cc6cc(c5O)Oc5ccc(cc5Cl)[C@@H](O[C@@H]5O[C@H](CO)[C@@H](O)[C@H](O)[C@H]5NC(C)=O)[C@H]5NC(=O)[C@H](NC(O)[C@@H]6NC(=O)[C@@H](NC4=O)c4cc(O)cc(c4)Oc4cc3ccc4O)c3ccc(O)c(c3)-c3c(O)cc(O)cc3[C@H](C(=O)O)NC5=O)nn2)C1=O (some centres not stated)	=	5.31
CCCCCCCCCCCCS(=O)(=O)N[C@H]1C(=O)N[C@@H]2Cc3ccc(c(Cl)c3)Oc3cc4cc(c3O)Oc3ccc(cc3Cl)[C@@H](O[C@@H]3O[C@H](CO)[C@@H](O)[C@H](O)[C@H]3NC(C)=O)[C@H]3NC(=O)[C@H](NC(O)[C@@H]4NC(=O)[C@@H](NC2=O)c2cc(O)cc(c2)Oc2cc1ccc2O)c1ccc(O)c(c1)-c1c(O)cc(O)cc1[C@H](C(=O)O)NC3=O (some centres not stated)	>	6.10

---

Entries and their CC50 at 72 h values follow.
# method: Cytotoxicity against MDCK cells assessed as reduction in cell viability after 3 days by MTS assay
# Type: cell-based, Canis lupus familiaris
# test-parameters: dog, MDCK cells

compound	output-unit	CC50 at 72 h
CC(=O)N[C@H]1[C@H](O[C@@H]2c3ccc(c(Cl)c3)Oc3cc4cc(c3O)Oc3ccc(cc3Cl)C[C@H]3NC(=O)[C@H](n5cc(COc6cccc7ccccc67)nn5)c5ccc(O)c(c5)Oc5cc(O)cc(c5)[C@H](NC3=O)C(=O)N[C@H]4C(O)N[C@H]3C(=O)N[C@H]2C(=O)N[C@@H](C(=O)O)c2cc(O)cc(O)c2-c2cc3ccc2O)O[C@H](CO)[C@@H](O)[C@@H]1O (stereo partly drawn)	µM	47
CCCCCCCCCCCCCCCCOCc1cn([C@H]2C(=O)N[C@@H]3Cc4ccc(c(Cl)c4)Oc4cc5cc(c4O)Oc4ccc(cc4Cl)[C@@H](O[C@@H]4O[C@H](CO)[C@@H](O)[C@H](O)[C@H]4NC(C)=O)[C@H]4NC(=O)[C@H](NC(O)[C@@H]5NC(=O)[C@@H](NC3=O)c3cc(O)cc(c3)Oc3cc2ccc3O)c2ccc(O)c(c2)-c2c(O)cc(O)cc2[C@H](C(=O)O)NC4=O)nn1 (stereo partly drawn)	µM	7.6
CCCCCCOCc1cn([C@H]2C(=O)N[C@@H]3Cc4ccc(c(Cl)c4)Oc4cc5cc(c4O)Oc4ccc(cc4Cl)[C@@H](O[C@@H]4O[C@H](CO)[C@@H](O)[C@H](O)[C@H]4NC(C)=O)[C@H]4NC(=O)[C@H](NC(O)[C@@H]5NC(=O)[C@@H](NC3=O)c3cc(O)cc(c3)Oc3cc2ccc3O)c2ccc(O)c(c2)-c2c(O)cc(O)cc2[C@H](C(=O)O)NC4=O)nn1 (stereo partly drawn)	µM	53
